Assay: Measurement of vapor pressures (gas flow method)
Format: physicochemical
Settings: at 25° C., gas flow method
vapor pressure: recorded values

COMPOUND	vapor pressure
O=C(O)CN(CC(=O)O)c1ccc(N(CC(=O)O)CC(=O)O)cc1 [TCPD]	8.7×10^-9 mmHg
Cl.Cl.OCCN(CCO)c1ccc(N(CCO)CCO)cc1 [THEPD]	1.3×10^-6 mmHg
Cl.Cl.OCC(O)CN(CC(O)CO)c1ccc(N(CC(O)CO)CC(O)CO)cc1 (stereo not shown) [TDHPD]	1.0×10^-9 mmHg
CCN(CC)c1ccc(N(CC)CC)cc1.Cl.Cl [TEPD, reference compound]	4.2×10^-4 mmHg
